Where do the numbers come from? From PubChem BioAssay AID1159580.

Experimental details: chemical genetic growth profiling, strain panel (AID 1159580);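 further: tested at 20 µM; growth read once vehicle control cultures reached saturation at 30 °C; lower values mean less growth of the strain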
Run conditions: S. cerevisiae deletion strains, growth OD, locus YGR092W, strain DBF2
Out of some 5,500 compounds screened, about 2,000 (36%) were called active. About 18% were inconclusive and are not listed. No stated cut-off is given here; in the data, active means normalized growth mostly below about 0.91 (no sharp cut-off); inconclusive means no clear call, values can overlap the other calls; inactive means mostly above about 0.92. Some of the results follow.
A correct response names exactly one class from active, inactive

Consider the following illustrative entries.
Q. Which outcome was assigned to C=CCOc1ccc(/C=C/[N+](=O)[O-])cc1 in this test?
A. active

Q. // param item: O=[N+]([O-])/C=C/c1ccc(F)cc1 ; yields the recorded call
A. active

Q. Returns: the outcome recorded for Cc1ccc(S(=O)(=O)CCSC2=CC(=O)CC(C)(C)S2)cc1 in this assay.
A. inactive

Q. Test call for this compound, please: O=C(c1ccccc1)c1cc(Cl)ccc1NC(=S)Nc1ccc(F)cc1
A. inactive

Q. Called result for CCCc1c(C(=O)NC2Cc3ccccc3C2)cnn1-c1ccccc1
A. inactive

Q. Record lookup: outcome of this test for Cc1cc(Br)ccc1-n1c(Sc2c([N+](=O)[O-])cc(C(F)(F)F)cc2[N+](=O)[O-])nc2ccccc2c1=O ?
A. inactive

---
Q. Dear all, I need the recorded test outcome for O=C(Nc1ccc(C(F)(F)F)cc1)N1CCN(c2ccnc3cc(Cl)ccc23)CC1 , thank you.
A. inactive

Q. What did this assay record as the result for O=C(Nc1ccc(N2CCOCC2)cc1)c1ccc(-n2cccn2)cc1 ?
A. inactive

Q. Tell me the recorded outcome of this test for O=C(NC(=O)c1c(F)cccc1Cl)OCc1ccc(Cl)cc1Cl .
A. inactive

Q. Dear all, I need the recorded test outcome for OC(CNCc1ccc(Cl)cc1)CO/N=C\C1=C(Cl)c2cc(Cl)ccc2OC1 (stereo not drawn) , thank you.
A. inactive

Q. Hi, do you know how O=C(NCCSCc1cccc(C(F)(F)F)c1)c1ccc(Cl)cc1 came out in this test?
A. inactive

Q. I'd appreciate the recorded outcome for CCCc1c(C(=O)Sc2ccccn2)cnn1-c1ccc(Cl)cc1 from this test.
A. inactive

Q. Can you look up the reported call for CC(=O)Nc1ccc([N+](=O)[O-])cc1[N+](=O)[O-] for me?
A. active

Q. Which outcome did this test record for the compound COc1ccc(C(=O)CSC2=NCCc3ccccc32)cc1 ?
A. inactive

Q. Hello, I am checking results. What call was entered for O=C(NC(=S)Nc1cccc(C(F)(F)F)c1)c1ccc2nonc2c1 ?
A. inactive

Q. Hi team, can someone confirm the assay call for CC(C)c1ccc(N2C=Nc3ccc(C(C)C)cc3C2)cc1 ?
A. inactive

Q. Which outcome was assigned to O=C(NCCSCc1ccco1)Nc1cc(Cl)cc(Cl)c1 in this test?
A. inactive

Q. Please indicate how the test categorized Cn1c(CSCCOc2ccccc2)nnc1SCc1ccc(Cl)cc1Cl .
A. inactive

Q. Each compound tested received a call. Report the one for CC(C)c1ccc(NC(=S)NC(=O)c2ccccc2)cc1 .
A. inactive

---

Experimental details: chemical genetic growth profiling, strain panel (AID 1159580);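 further: tested at 20 µM; growth read once vehicle control cultures reached saturation at 30 °C; lower values mean less growth of the strain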
Run conditions: S. cerevisiae deletion strains, growth OD, locus YLR262C, strain YPT6
Hit rate of the full screen: of about 5,500 compounds, about 2,000 (36%) were called active. Not shown: some 18% with an inconclusive outcome. Rule as the data show it: active = normalized growth mostly below about 0.91 (no sharp cut-off); inconclusive = no clear call, values can overlap the other calls; inactive = mostly above about 0.92. Some of the results follow.
Answer with one of the outcomes given here: active, inactive

Q. For COc1ccc(-c2c(C)nc3ccc(Cl)cc3c2-c2ccccc2)cc1OC , what call appears in the results of this test?
A. inactive

More entries:
Q. Write down the call the test reported for this compound. Item: COc1c2c(cc3c1OCO3)CCN(C)C2
A. inactive

Q. Please share the test call associated with Oc1c(I)cc(I)c2cccnc12 .
A. active

Q. I'd appreciate the recorded outcome for CCCCC(CC)CN1CN(CC(CC)CCCC)CC(C)(N)C1 (stereo unspecified) from this test.
A. active

Q. What did the test return for COc1cc(C2N=C(c3ccc(Cl)cc3)SC(c3ccc(Cl)cc3)=N2)cc(OC)c1OC ?
A. inactive

Q. Call for entry COc1cc(C(=O)NCc2ccc(OCCN(C)C)cc2)cc(OC)c1OC :
A. inactive
